assay: viability loss with induced miR-34 in A549 – imaging, A549 dox-inducible miR-34, nuclei and caspase counts, primary screen (AID 1347080); conditions: A549 miR-34 inducible, Hoechst nuclei count, 48 h; measured here: total cells with miR-34 induction; stronger effect = lower value
Peptide text beside a SMILES is read from it.
Parameter measured: cell count

Hi! Can you tell me cell count for each of these compounds?
1. COC(=O)[C@H](Cc1ccccc1)NC(=O)[C@@H](N)CC(=O)O (H-Asp-Phe-OMe)
2. Cc1[nH]cnc1CN1CCc2c(c3ccccc3n2C)C1=O
3. CN1CCCN=C1COC(=O)C(O)(c1ccccc1)C1CCCCC1 (stereo not drawn)
4. S=P(N1CC1)(N1CC1)N1CC1
5. NC(=O)c1ncn([C@@H]2O[C@H](CO)[C@@H](O)[C@H]2O)c1O

1: 11000; 2: 9740; 3: 10300; 4: 2790; 5: 10800

Batch: cell count for all items listed.
1. NC(Cc1ccc(Cl)cc1)C(=O)O (stereo not drawn)
2. COc1ccc(C2C(=O)c3ccccc3C2=O)cc1
3. Cc1cc2nc3c(=O)[nH]c(=O)nc-3n(C[C@H](O)[C@H](O)[C@H](O)CO)c2cc1C
4. C[C@](N)(Cc1ccc(O)cc1)C(=O)O
5. CC[N+](C)(CC)CCOC(=O)C(O)(c1ccccc1)C1CCCCC1 (stereo not drawn)
6. CC1=C(C(=O)O)N2C(=O)[C@@H](NC(=O)[C@H](N)c3ccc(O)cc3)[C@H]2SC1
7. CCN(CC)CCOc1ccc(/C(=C(\Cl)c2ccccc2)c2ccccc2)cc1
8. CN(C)c1ccc2nc3ccc(=[N+](C)C)cc-3sc2c1

1. 10900
2. 11100
3. 7920
4. 10300
5. 8830
6. 8500
7. 10700
8. 3100

State the recorded cell count for every item in the following list.
1. Cc1c(NC(=O)c2cccnc2)c(=O)n(-c2ccccc2)n1C
2. CO[C@@H]1[C@@H](OC(N)=O)[C@@H](O)[C@H](Oc2ccc3c(O)c(NC(=O)c4ccc(O)c(CC=C(C)C)c4)c(=O)oc3c2C)OC1(C)C
3. NC(=O)c1ccccc1O
4. COc1ccc(-c2cc(C(F)F)nn2-c2ccc(S(N)(=O)=O)cc2)cc1F
5. CC(=O)Oc1cccc2c1C(=O)c1c(OC(C)=O)cc(C(=O)O)cc1C2=O

[8460, 10300, 11700, 10300, 8090]

###

assay: compounds altering HSF1 focus formation in cells – imaging, Selleck Cancer Library (AID 1347162); conditions: human cells, HSF1 nuclear foci imaging, at 10 µM; measured here: HSF1 foci SSMD mean
Parameter measured: SSMD
Answers are plain numbers.

| Compound | SSMD |
| --- | --- |
| COC(=O)Nc1nc2ccc(C(=O)c3cccs3)cc2[nH]1 | 3.16 |

Provide each entry's SSMD from the list below.
1. CN(Cc1cnc2nc(N)nc(N)c2n1)c1ccc(C(=O)N[C@@H](CCC(=O)O)C(=O)O)cc1
2. COc1cccc2c1C(=O)c1c(O)c3c(c(O)c1C2=O)C[C@@](O)(C(=O)CO)C[C@@H]3O[C@H]1C[C@H](N)[C@H](O)[C@H](C)O1
3. CCC(C)n1ncn(-c2ccc(N3CCN(c4ccc(OC[C@H]5CO[C@](Cn6cncn6)(c6ccc(Cl)cc6Cl)O5)cc4)CC3)cc2)c1=O (stereo partly drawn)

2.25
-18.3
2.18

// each listed compound needs a value for SSMD
1. CNNCc1ccc(C(=O)NC(C)C)cc1
2. N#Cc1ccc(C(c2ccc(C#N)cc2)n2cncn2)cc1
3. CC[C@@]1(O)C(=O)OCc2c1cc1n(c2=O)Cc2cc3c(CN(C)C)c(O)ccc3nc2-1

1. 2.76
2. 2
3. -8.15

Request the reported SSMD associated with `COc1cc2c(Nc3ccc(Br)cc3F)ncnc2cc1OCC1CCN(C)CC1`
-3.85

###

I'd appreciate it if you could supply insulin secretion stimulation values for the items below.
assay: stimulators of insulin release from INS-1E, primary screen, cell-based, 5 mM glucose, NPC library (AID 1117329); details: rat INS-1E insulin secretion, at 10 µM, stronger effect = higher value; also: reference of the scale not given here
Numbers only, in %.

List insulin secretion stimulation for every entry below, keeping the order given.
1. COC(=O)C1=C(C)NC(C)=C(C(=O)O[C@@H]2CCCN(Cc3ccccc3)C2)[C@@H]1c1cccc([N+](=O)[O-])c1
2. Cc1[nH]c(C)c(Cl)c(=O)c1Cl
3. CC(=O)N(O)CCCCCNC(=O)CCC(=O)N(O)CCCCCNC(=O)CCC(=O)N(O)CCCCCN
4. COCc1c(C(C)C)nc(C(C)C)c(/C=C/[C@@H](O)C[C@@H](O)CC(=O)O)c1-c1ccc(F)cc1

1.9
-1.1
1.8
-0.8

Give insulin secretion stimulation for each of the items listed below.
1. O=C(O)CCCCC1CCSS1 (stereo unspecified)
2. NC(=O)OCC(COC(N)=O)c1ccccc1
3. Clc1ccccc1C(c1ccccc1)(c1ccccc1)n1ccnc1
4. C[C@]12C=CC(=O)C=C1CC[C@H]1[C@@H]3C[C@@H](O)[C@](O)(C(=O)CO)[C@@]3(C)C[C@H](O)[C@@]12F

[-1.9, 0.3, 0.9, -0.5]

###

molecular target: 6-phosphogluconate dehydrogenase, decarboxylating (Homo sapiens); test: inhibition of human phosphogluconate dehydrogenase – biochemical, recombinant enzyme, NADPH absorbance, primary screen (AID 1159550); settings: recombinant 6PGD, NADPH absorbance 341 nm; at 10 µM; stronger effect = higher value
For each entry below, report its inhibition value.
One number for each entry, in %.

| Compound | System tested | inhibition [%] |
| --- | --- | --- |
| S=P(N1CC1)(N1CC1)N1CC1 | 6-phosphogluconate dehydrogenase, decarboxylating (Homo sapiens) | -6.76 |

Quick one: give me inhibition for each item below, same order please.
1. CC(=O)N[C@@H](CS)C(=O)O
2. CN(C)CCC(c1ccccc1)c1ccccn1 (stereo not drawn)
3. C[C@]12CC[C@@H]3c4ccc(O)cc4CC[C@H]3[C@@H]1C[C@@H](O)[C@@H]2O

[-17.2, -0.335, -14.5]

Your task in this section: give inhibition for each listed record.
1. Oc1cccc(O)c1
2. CC/C(=C(/CC)c1ccc(O)cc1)c1ccc(O)cc1
3. CCCN(CCC)C(=O)C(CCC(=O)O)NC(=O)c1ccccc1 (stereo not drawn)
4. O=C(O)CCCC[C@@H]1SC[C@@H]2NC(=O)N[C@@H]21
5. Cc1cc2cc3c(C)cc(=O)oc3c(C)c2o1
6. CCCOc1ccc2nc(NC(=O)OC)[nH]c2c1
7. CCCCOc1ccc(CC(=O)NO)cc1
8. CO[C@]12C[C@@H](COC(=O)c3cncc(Br)c3)CN(C)[C@@H]1Cc1cn(C)c3cccc2c13

1. -5.12
2. 8.9
3. 1.53
4. 12.7
5. -18.4
6. 2.75
7. -6.77
8. 6.31

Data request, read-out inhibition, for CCN(CC)C(C)CN1c2ccccc2Sc2ccccc21 (stereo not drawn)
-5.57

###

assay: HCT116 colon cancer cell growth inhibition, primary screen, CellTiter-Glo luminescence, NPC library (AID 1117342); conditions: at 20 µM (top of the series)
Parameter measured: inhibition of viability (%)
Answers are plain numbers, in %.

// for each compound in input: emit inhibition of viability
1. C[n+]1cc2c3c(ccc2c2ccc4cc5c(cc4c21)OCO5)OCO3
2. CCOC(N)=O
3. CCOC(=O)C(C)(C)Oc1ccc(Cl)cc1
4. CCn1cc(C(=O)O)c(=O)c2cnc(N3CCCC3)nc21
5. CCOC(=O)C1=C(C)NC(C)=C(C(=O)OC)C1c1cccc(Cl)c1Cl (stereo not given)
6. CCCCC(=O)O[C@]1(C(=O)CO)[C@@H](C)C[C@H]2[C@@H]3CCC4=CC(=O)C=C[C@]4(C)[C@@]3(F)[C@@H](O)C[C@@]21C

1: 102; 2: 3.77; 3: -9.77; 4: 0; 5: 110; 6: 12.9

###

experiment: viability loss with induced miR-34 in A549 – imaging, A549 dox-inducible miR-34, nuclei and caspase counts, primary screen (AID 1347080); details: A549 miR-34 inducible, Hoechst nuclei count, 48 h; measured here: total cells without miR-34 induction
Parameter measured: cell count
Numbers only.

Take a look at these entries with their results.
| Compound | Experimental value |
| --- | --- |
| CCOC(=O)OC(C)OC(=O)[C@@H]1N2C(=O)[C@@H](NC(=O)[C@H](N)c3ccccc3)[C@H]2SC1(C)C (stereo partly specified) | 9820 |
| OCc1cccnc1 | 9800 |
| C[C@@H]1CN(c2c(F)c(F)c3c(=O)c(C(=O)O)cn(C4CC4)c3c2F)C[C@H](C)N1 | 9690 |
| C[C@@H]1CN(CCCn2c3ccccc3c3ccccc32)C[C@H](C)N1 | 8340 |
| Nc1c2c(nc3c1CCC3)CCCC2 | 9920 |

Now for a further compound.
For the compound shown here, `CN(C)CC[C@@H](c1ccc(Cl)cc1)c1ccccn1` , give the reported cell count.
9740
